A collection of molecules and their measured relative viability
Test system: RERF-LC-KJ
Assay: relative viability (nuclei count vs DMSO), 5 days (fraction); higher = more cells survive
Conditions: first compound 4 µM
Would you mind answering with just the numeric figure?

• C[C@@H]1CN(CC(=O)Nc2ccc3c(c2)Cc2cccc(-c4cc(=O)cc(N5CCOCC5)o4)c2S3)C[C@H](C)O1 + Cc1nc(NC(=O)N2CCC[C@H]2C(N)=O)sc1-c1ccnc(C(C)(C)C(F)(F)F)c1 [Alpelisib] (partner 2 µM) = 0.792

Which value of relative viability has been reported for Clc1ccc(Nc2nnc(Cc3ccncc3)c3ccccc23)cc1 [Vatalanib] + COc1cc2c(Oc3ccc(NC(=O)C4(C(=O)Nc5ccc(F)cc5)CC4)cc3F)ccnc2cc1OCCCN1CCOCC1 [Foretinib] (partner 0.25 µM) in the records?
0.766

Entry C[C@@H]1CN(CC(=O)Nc2ccc3c(c2)Cc2cccc(-c4cc(=O)cc(N5CCOCC5)o4)c2S3)C[C@H](C)O1 + CC(C)C[C@H](NC(=O)[C@H](Cc1ccccc1)NC(=O)c1cnccn1)B(O)O [Bortezomib] (partner 0.002 µM) please
0.998

Entry COc1cc(N2CCC(C(N)=O)CC2)ccc1Nc1nc(N)c(Cl)c(Nc2ccccc2S(=O)(=O)C(C)C)n1 [HG-5-88-01] + O=C(CCCCCCC(=O)Nc1ccccc1)NO [Vorinostat] (partner 1 µM) please
0.405

Entry C[C@@H]1CN(CC(=O)Nc2ccc3c(c2)Cc2cccc(-c4cc(=O)cc(N5CCOCC5)o4)c2S3)C[C@H](C)O1 + Cc1nc(Nc2ncc(C(=O)Nc3c(C)cccc3Cl)s2)cc(N2CCN(CCO)CC2)n1 [Dasatinib] (partner 0.075 µM) please
0.665

Entry COc1cc(N2CCC(C(N)=O)CC2)ccc1Nc1nc(N)c(Cl)c(Nc2ccccc2S(=O)(=O)C(C)C)n1 [HG-5-88-01] + C[C@]1(O)C[C@@H](c2nc(-c3ccc4ccc(-c5ccccc5)nc4c3)c3c(N)nccn32)C1 [Linsitinib] (partner 1 µM) please
0.539

Entry C[C@@H]1CN(CC(=O)Nc2ccc3c(c2)Cc2cccc(-c4cc(=O)cc(N5CCOCC5)o4)c2S3)C[C@H](C)O1 + COc1cc2c(Oc3ccc(NC(=O)C4(C(=O)Nc5ccc(F)cc5)CC4)cc3F)ccnc2cc1OCCCN1CCOCC1 [Foretinib] (partner 0.25 µM) please
0.871

Entry Clc1ccc(Nc2nnc(Cc3ccncc3)c3ccccc23)cc1 [Vatalanib] + C[C@@H](Oc1cc(-c2cnn(C3CCNCC3)c2)cnc1N)c1c(Cl)ccc(F)c1Cl [Crizotinib] (partner 1 µM) please
0.799

Entry C[C@@H]1CN(CC(=O)Nc2ccc3c(c2)Cc2cccc(-c4cc(=O)cc(N5CCOCC5)o4)c2S3)C[C@H](C)O1 + C[C@@H](Oc1cc(-c2cnn(C3CCNCC3)c2)cnc1N)c1c(Cl)ccc(F)c1Cl [Crizotinib] (partner 1 µM) please
0.722

Entry C[C@@H]1CN(CC(=O)Nc2ccc3c(c2)Cc2cccc(-c4cc(=O)cc(N5CCOCC5)o4)c2S3)C[C@H](C)O1 + CC(=O)c1c(C)c2cnc(Nc3ccc(N4CCNCC4)cn3)nc2n(C2CCCC2)c1=O [Palbociclib] (partner 0.5 µM) please
0.818
